Test system: UO-31
TEST: Growth inhibition of human UO31 cells incubated for 48 hrs by sulforhodamine B assay
Assay type: functional
MEASUREMENT SETUP: UO-31, 48 h
Just a reminder that ties go to no: only TGI strictly below 10 µM counts as yes.

| SMILES DATA | CLASS NAME |
| --- | --- |
| COc1cc2cc(Oc3ccc(NC(=O)Nc4ccc(Cl)c(Cl)c4)cc3)c(C)nc2cc1OC | no |
| COc1cc2cc(Oc3ccc(NC(=O)Nc4cc(C(F)(F)F)cc(C(F)(F)F)c4)cc3)c(C)nc2cc1OC | yes |
| COc1cc2cc(Oc3ccc(NC(=O)Nc4cccc(C(F)(F)F)c4)cc3)c(C)nc2cc1OC | no |
| Cc1nc2cc(O)c(O)cc2cc1Oc1ccc(NC(=O)Nc2ccc(Cl)c(Cl)c2)cc1 | no |
| COc1cc2cc(Oc3ccc(NC(=O)Nc4ccc(Cl)c(C(F)(F)F)c4)cc3)c(C)nc2cc1OC | yes |
| CNC(=O)c1cc(Oc2ccc(NC(=O)Nc3ccc(Cl)c(C(F)(F)F)c3)cc2)ccn1 | yes |

###

System: NCI-H522
TEST: Growth inhibition of human NCI-H522 cells incubated for 48 hrs by sulforhodamine B assay
Type: functional
MEASUREMENT SETUP: NCI-H522, 48 h, read-out: LC50 (the source's name)
MEASURED PARAMETER: CC50 (µM)

| SMILES DATA | RELATION SYMBOL | MEASURED |
| --- | --- | --- |
| COc1cc2cc(Oc3ccc(NC(=O)Nc4cccc(C(F)(F)F)c4)cc3)c(C)nc2cc1OC | = | 32.4 |
| COc1cc2cc(Oc3ccc(NC(=O)Nc4ccc(Cl)c(Cl)c4)cc3)c(C)nc2cc1OC | = | 59.5 |
| COc1cc2cc(Oc3ccc(NC(=O)Nc4cc(C(F)(F)F)cc(C(F)(F)F)c4)cc3)c(C)nc2cc1OC | = | 6.95 |
| COc1cc2cc(Oc3ccc(NC(=O)Nc4ccc(Cl)c(C(F)(F)F)c4)cc3)c(C)nc2cc1OC | = | 12.2 |
| Cc1nc2cc(O)c(O)cc2cc1Oc1ccc(NC(=O)Nc2ccc(Cl)c(Cl)c2)cc1 | > | 32.5 |

###

System: SK-MEL-2
TEST: Growth inhibition of human SK-MEL-2 cells incubated for 48 hrs by sulforhodamine B assay
Assay type: functional
MEASUREMENT SETUP: SK-MEL-2, 48 h
Labelling: TGI reported below 6 µM becomes 1; at or above becomes 0.

| COMPOUND | CLASS NAME |
| --- | --- |
| COc1cc2cc(Oc3ccc(NC(=O)Nc4ccc(Cl)c(C(F)(F)F)c4)cc3)c(C)nc2cc1OC | 1 |
| COc1cc2cc(Oc3ccc(NC(=O)Nc4ccc(Cl)c(Cl)c4)cc3)c(C)nc2cc1OC | 0 |
| COc1cc2cc(Oc3ccc(NC(=O)Nc4cccc(C(F)(F)F)c4)cc3)c(C)nc2cc1OC | 1 |
| COc1cc2cc(Oc3ccc(NC(=O)Nc4cc(C(F)(F)F)cc(C(F)(F)F)c4)cc3)c(C)nc2cc1OC | 1 |
| CNC(=O)c1cc(Oc2ccc(NC(=O)Nc3ccc(Cl)c(C(F)(F)F)c3)cc2)ccn1 [SORAFENIB] | 0 |
| Cc1nc2cc(O)c(O)cc2cc1Oc1ccc(NC(=O)Nc2ccc(Cl)c(Cl)c2)cc1 | 0 |
